- TARGET_DESC: Human recombinant PDE10A (hPDE10A) (Homo sapiens, UniProt Q9Y233)
- Construct: His tag (inferred from metal chelate purification); made in house; host or cells: Sf9 insect cells (baculovirus)
- Sequence (Q9Y233 267-1055): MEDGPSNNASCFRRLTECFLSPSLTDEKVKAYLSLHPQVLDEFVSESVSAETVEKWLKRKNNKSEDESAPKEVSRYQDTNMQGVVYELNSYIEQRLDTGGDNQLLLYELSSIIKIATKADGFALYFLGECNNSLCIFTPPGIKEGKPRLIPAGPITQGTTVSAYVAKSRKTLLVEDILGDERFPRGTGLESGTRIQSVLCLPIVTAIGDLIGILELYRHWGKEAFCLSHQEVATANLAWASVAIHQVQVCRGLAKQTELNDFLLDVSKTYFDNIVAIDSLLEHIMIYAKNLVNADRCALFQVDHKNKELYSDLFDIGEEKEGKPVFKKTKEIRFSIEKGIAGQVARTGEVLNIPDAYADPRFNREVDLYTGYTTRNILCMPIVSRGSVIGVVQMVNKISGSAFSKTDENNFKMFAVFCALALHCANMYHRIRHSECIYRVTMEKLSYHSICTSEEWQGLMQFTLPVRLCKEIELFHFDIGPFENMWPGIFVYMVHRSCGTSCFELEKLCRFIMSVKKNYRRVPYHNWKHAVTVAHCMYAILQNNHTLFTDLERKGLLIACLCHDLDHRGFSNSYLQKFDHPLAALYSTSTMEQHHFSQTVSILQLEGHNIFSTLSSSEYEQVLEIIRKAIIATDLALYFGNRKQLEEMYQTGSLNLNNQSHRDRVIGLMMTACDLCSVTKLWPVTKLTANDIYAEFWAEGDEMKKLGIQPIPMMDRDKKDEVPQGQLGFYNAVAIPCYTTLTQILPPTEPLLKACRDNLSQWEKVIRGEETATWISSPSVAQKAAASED
- ASSAY_DETAILS: In vitro assay PDE10A, human clone (SPA, 3H-cAMP hydrolysis)
- Assay type: biochemical
- MEASUREMENT_CONDITIONS: human clone (h), default; read-out: hPDE10A2 pIC50 (converted)
# note: exactly 400 nM is not below, so it is Not fulfilled; use Fulfilled for IC50 strictly under it

MOLECULE_SMILES	TARGET_DESC	ASSIGNED_CATEGORY
Cc1cc([C@@H]2CN(C(=O)c3cc(C)c(Cl)c(C)c3)CC[C@H]2C)n2ncnc2n1	Human recombinant PDE10A (hPDE10A) (Homo sapiens, UniProt Q9Y233)	Fulfilled
Cc1cc([C@H]2CN(C(=O)c3ccc4ncsc4c3)CC[C@@H]2C)n2ncnc2n1	Human recombinant PDE10A (hPDE10A) (Homo sapiens, UniProt Q9Y233)	Fulfilled
C[C@@H]1CCN(C(=O)c2ccc(Cl)c(OC(F)F)c2)C[C@H]1c1cc(C(F)F)nc2ncnn12	Human recombinant PDE10A (hPDE10A) (Homo sapiens, UniProt Q9Y233)	Fulfilled
Cc1cc(C(=O)N2CC[C@@H](C)[C@H](c3cc(C(F)F)nc4ncnn34)C2)cc(Cl)c1F	Human recombinant PDE10A (hPDE10A) (Homo sapiens, UniProt Q9Y233)	Fulfilled
COc1ncc(C(=O)N2CC[C@@H](C)[C@H](c3cc(C(F)F)nc4ncnn34)C2)cc1C1CC1	Human recombinant PDE10A (hPDE10A) (Homo sapiens, UniProt Q9Y233)	Fulfilled
COc1ccc(C(=O)N2CC[C@@H](C)[C@H](c3cc(C(F)F)nc4ncnn34)C2)nc1	Human recombinant PDE10A (hPDE10A) (Homo sapiens, UniProt Q9Y233)	Not fulfilled
Cc1coc2ccc(C(=O)N3CC[C@@H](C)[C@H](c4cc(C(F)F)nc5ncnn45)C3)cc12	Human recombinant PDE10A (hPDE10A) (Homo sapiens, UniProt Q9Y233)	Fulfilled
C[C@@H]1CCN(C(=O)c2cc(C3CC3)ncc2F)C[C@H]1c1cc(C(F)F)nc2ncnn12	Human recombinant PDE10A (hPDE10A) (Homo sapiens, UniProt Q9Y233)	Not fulfilled
C[C@@H]1CCN(C(=O)c2noc3ccccc23)C[C@H]1c1cc(C(F)F)nc2ncnn12	Human recombinant PDE10A (hPDE10A) (Homo sapiens, UniProt Q9Y233)	Not fulfilled
Cc1nc(C(=O)N2CC[C@H](C)[C@H](c3cc(C(F)F)nc4ncnn34)C2)ccc1F	Human recombinant PDE10A (hPDE10A) (Homo sapiens, UniProt Q9Y233)	Not fulfilled
Cc1cc([C@H]2CN(C(=O)c3ccc4nccn4c3)CC[C@@H]2C)n2ncnc2n1	Human recombinant PDE10A (hPDE10A) (Homo sapiens, UniProt Q9Y233)	Not fulfilled
Cc1cc([C@@H]2CN(C(=O)c3cc(C)sc3C)CC[C@H]2C)n2ncnc2n1	Human recombinant PDE10A (hPDE10A) (Homo sapiens, UniProt Q9Y233)	Fulfilled
Cc1cc([C@@H]2CN(C(=O)c3cc(Cl)ncc3C(F)(F)F)CC[C@H]2C)n2ncnc2n1	Human recombinant PDE10A (hPDE10A) (Homo sapiens, UniProt Q9Y233)	Fulfilled
Cc1c(C(=O)N2[C@H]3CC[C@@H]2[C@H](c2cc(C(F)F)nc4ncnn24)CC3)oc2ccccc12	Human recombinant PDE10A (hPDE10A) (Homo sapiens, UniProt Q9Y233)	Not fulfilled
C[C@@H]1CCN(C(=O)c2cc(Cl)ncc2F)C[C@H]1c1cc(C(F)F)nc2ncnn12	Human recombinant PDE10A (hPDE10A) (Homo sapiens, UniProt Q9Y233)	Not fulfilled
C[C@@H]1CCN(C(=O)c2cnccn2)C[C@H]1c1cc(C(F)F)nc2ncnn12	Human recombinant PDE10A (hPDE10A) (Homo sapiens, UniProt Q9Y233)	Not fulfilled
